Source listed as PubChem BioAssay (NCI).

# System: UACC-257 melanoma
# measurement protocol: NCI tumour cell line growth inhibition, 48 h
The entries below come with measured TGI values attached.
measurement type: TGI

>>> result("COc1cc(-c2[o+]c3cc(O)cc(OC4OC(CO)C(O)C(O)C4O)c3cc2OC2OC(CO)C(O)C(O)C2O)cc(OC)c1O (centres undefined)")
"> 100 µM"
>>> result("COC(=O)C[C@H](CCSC)NC(=O)C[C@H](CCSC)NC(=O)C[C@H](CCSC)NC(=O)OC(C)(C)C")
"> 100 µM"
>>> result("CCOC(=O)c1c(-c2ccc(OC)c(O)c2)c(C#N)c(=S)n(C2OC(CO)C(O)C(O)C2O)c1-c1ccccc1 (centres undefined)")
"> 100 µM"
>>> result("O=C1C2=C(c3ccccc31)C(c1ccc(F)cc1)N1C(=O)CCSC1=N2 (centres undefined)")
"> 100 µM"
>>> result("O=C1C(=Cc2ccccc2[N+](=O)[O-])N=C(c2ccccc2)N1n1c(-c2ccccc2)nc2ccccc2c1=O")
"90.7 µM"
>>> result("CC1(O)C(=O)OC2CC([C@]3(O)CCC4[C@@H]5C[C@H]6O[C@]67[C@@H](O)C=CC(=O)[C@]7(C)C5CC[C@@]43C)C1(C)C2 (some centres undefined)")
"26.6 µM"
>>> result("Cc1ccc2c(=O)c(C(=O)N(CCO)CCO)c[nH]c2n1")
"> 100 µM"
>>> result("Cn1c(=O)c2[nH]c(CCC(=O)O)nc2n(C)c1=O")
"> 100 µM"
>>> result("CNC(C)Cc1ccc(O)cc1 (centres undefined)")
"> 100 µM"
>>> result("C=CCn1c(=O)c2ccccc2[n+]2c(-c3cccc([N+](=O)[O-])c3)csc12")
"> 100 µM"
>>> result("Cc1ccc2cnc(N)c(C#Cc3cncc(C(=O)Nc4ccc(CN5CCN(C)CC5)c(C(F)(F)F)c4)c3)c2c1")
"1.38 µM"
>>> result("COc1cc2c(cc1O)CC[C@@H]1C2CC[C@@]2(C)C1CC[C@@H]2O (some centres undefined)")
"> 100 µM"
>>> result("Cc1ccc(C)c2c1CCc1cc3ccccc3nc1-2")
"> 100 µM"
>>> result("Cc1cccc(C(O)c2cccnc2)c1O (centres undefined)")
"> 100 µM"
>>> result("CCC1CCC2c3c([nH]c4ccccc34)C3C(=O)N(c4ccc(OC)cc4)C(=O)C3C2C1 (centres undefined)")
"> 100 µM"
>>> result("N#CC1CCc2c(c(-c3cn[nH]c3C(F)(F)F)nc3c(F)cc4[nH]ncc4c23)C1 (centres undefined)")
"74.5 µM"
>>> result("S=c1[nH]nc(SCc2ccccc2Cl)c2[nH]cnc12")
"> 100 µM"
>>> result("Cc1cc(Cl)ccc1NC(=O)NC(C)(C)COC(=O)Nc1cccc(Cl)c1")
"42.5 µM"
>>> result("CC(C)(F)C[C@H](N[C@@H](c1ccc(-c2ccc(S(C)(=O)=O)cc2)cc1)C(F)(F)F)C(=O)NC1(C#N)CC1")
"> 100 µM"
>>> result("CCCCCCc1cn([C@H]2C[C@H](O)[C@@H](CO)O2)c(=O)[nH]c1=O")
"> 100 µM"
>>> result("C=C1C(=O)O[C@H]2C/C(C=O)=C\\[C@H]3O[C@H]3/C(COC(=O)C(C)C)=C/CC12 (some centres undefined)")
"28.4 µM"
>>> result("CC1(C)Oc2ccc3c(=O)c4ccccc4oc3c2C1C(=O)O (centres undefined)")
"> 100 µM"
>>> result("CC(C)c1nccn1Cc1ccc(Cl)cc1Cl")
"95.9 µM"
>>> result("[N-]=[N+]=Nc1c(Br)c(=O)[nH]c(=O)n1COCCO")
"> 100 µM"
